target: GABARAPL2 (Homo sapiens, UniProt P60520); conditions: residue S53; GABARAPL2:ligand molar ratio 1:2
Sequence (P60520 whole entry): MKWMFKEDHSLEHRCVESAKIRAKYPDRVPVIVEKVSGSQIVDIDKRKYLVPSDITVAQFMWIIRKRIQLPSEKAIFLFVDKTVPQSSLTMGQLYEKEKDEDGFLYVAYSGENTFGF
# CSP per entry
Give just the numeric value; ppm need not be written.

1. O=C1Nc2ccc(Br)cc2C1=Cc1cc(O)c(O)c(Br)c1 : 0.014
2. O=c1cc(-c2ccccc2)c2c(O)cc(O)cc2o1 : 0.005
3. O=C1Nc2ccc(I)cc2C1=Cc1cc(Br)c(O)c(Br)c1 : 0.076

Entry Cc1ccc(C(=O)N(CCCN)[C@@H](c2nc3cc(Cl)ccc3c(=O)n2Cc2ccccc2)C(C)C)cc1 , CSP reported as 0.002

###

assay: Cell viability measurements; format: cell-based; settings: log concentration [M] -7.78915; two replicate columns
Quantity name: viability at 0.01625 µM

1) Cc1ccc(C(=O)N(CCCN)[C@@H](c2nc3cc(Cl)ccc3c(=O)n2Cc2ccccc2)C(C)C)cc1 [compound 3] : 96.5%

Turning now to a further record.
O=C1Nc2ccc(I)cc2C1=Cc1cc(Br)c(O)c(Br)c1 [compound 4] has a reported viability at 0.01625 µM of 101%

###

test: Cell viability measurements; type: cell-based; settings: log concentration [M] -8.30103; two replicate columns
Quantity name: viability at 0.005 µM (%)
Give the value in % but do not write % after it.

1. Cc1ccc(C(=O)N(CCCN)[C@@H](c2nc3cc(Cl)ccc3c(=O)n2Cc2ccccc2)C(C)C)cc1 : 99.5

Now examine the next entry.
Record O=C1Nc2ccc(I)cc2C1=Cc1cc(Br)c(O)c(Br)c1 . Reported viability at 0.005 µM: 99.7

###

The following compounds are shown together with reported % tracer bound @LC3A values.
target: LC3A (Homo sapiens, UniProt Q9H492); assay: FP assay with Cy5-labelled p62 LIR tracer (protein titration and tracer displacement); type: binding; details: LC3A tracer displacement, normalized on p62-LIR positive control
Write the number in % without appending the unit.

A selection of reference data follows.
1) COc1ccc(CN(CC2CCCCC2)S(=O)(=O)c2ccc(C(=O)O)cc2)cc1 : 92
2) CCCCCCC(Sc1nc2ccc(NCc3ccc4ccccc4c3)cc2s1)C(=O)O (stereo not shown) : 78
3) O=C(NCc1ccccc1)c1ccc(S(=O)(=O)Nc2ccccc2)cc1 : 88
4) CCCCCCC(Sc1nc(Cl)cc(Nc2nc(-c3ccc(C(F)(F)F)cc3)cs2)n1)C(=O)O (stereo not shown) : 76
5) CCC(Sc1nc(Cl)cc(Nc2nc(-c3ccc(Cl)cc3)cs2)n1)C(=O)O (stereo not shown) : 85
6) CCCCCCC(Sc1nc(Cl)cc(Nc2nc(-c3ccc(F)cc3F)cs2)n1)C(=O)O (stereo not shown) : 75

Here is the next item to consider.
Recorded % tracer bound @LC3A (compound CCCCCCC(Sc1nc(Cl)cc(Nc2nc(-c3ccccc3)c(CC)s2)n1)C(=O)O (stereo not shown) ): 77

###

target: LC3A (Homo sapiens, UniProt Q9H492); assay: FP assay with Cy5-labelled p62 LIR tracer (protein titration and tracer displacement); assay type: binding; details: LC3A tracer displacement, normalized on p62-LIR positive control
Hi, to clarify the labels: true (1) covers % tracer bound @LC3A from 80% upward, false (0) covers anything below 80%.

1) Cc1ccc(NS(=O)(=O)c2ccc(C(=O)N(C)Cc3ccccc3)cc2)cc1 : true (1)
2) CCCCCCC(Sc1nc(Cl)cc(Nc2nc(-c3ccc(OC)cc3)cs2)n1)C(=O)O (stereo not drawn) : true (1)
3) CCN(Cc1ccccc1)C(=O)c1ccc(S(=O)(=O)Nc2ccccc2)cc1 : true (1)

Task: Check this compound for % tracer bound @LC3A at or above 80%: CCCCCCC(Sc1nc(Cl)cc(Nc2nc3c(s2)CCc2cc(OC)ccc2-3)n1)C(=O)O (stereo not drawn)
Result: false (0)

Task: Quick check: does CCCCCCC(Sc1nc(Cl)cc(Nc2nc(-c3ccc(C(=O)O)cc3)cs2)n1)C(=O)O (stereo not drawn) have % tracer bound @LC3A greater than or equal to 80%?
Result: false (0)

Task: For this compound, is measured % tracer bound @LC3A 80% or higher? CCCCCCC(Sc1nc(Cl)cc(Nc2nc(-c3ccccc3)cs2)n1)C(=O)O (stereo not drawn)
Result: true (1)

Task: Decide: is the reported value of % tracer bound @LC3A for CN(Cc1ccccc1)C(=O)c1ccc(S(=O)(=O)Nc2ccccc2)cc1 equal to or greater than 80%?
Result: true (1)

###

Measured CSP of individual entries
target: UniProt:P60520; settings: residue V31; GABARAPL2:ligand molar ratio 1:2
Give just the numeric value; ppm need not be written.

1) O=C1Nc2ccc(I)cc2C1=Cc1cc(Br)c(O)c(Br)c1 : 0.128
2) Cc1ccc(C(=O)N(CCCN)[C@@H](c2nc3cc(Cl)ccc3c(=O)n2Cc2ccccc2)C(C)C)cc1 : 0.00444
3) O=C1Nc2ccc(Br)cc2C1=Cc1cc(O)c(O)c(Br)c1 : 0.038

Field CSP (UniProt:P60520), entry O=c1cc(-c2ccccc2)c2c(O)cc(O)cc2o1 : 0.025

###

target: GABARAPL2 (Homo sapiens); settings: residue D81; GABARAPL2:ligand molar ratio 1:2
Here the recorded CSP is given for each entry.
Your answer is read as ppm, so omit the unit and give the number.

These recorded examples may help you get a feel for the data.
1) O=C1Nc2ccc(I)cc2C1=Cc1cc(Br)c(O)c(Br)c1 : 0.022
2) Cc1ccc(C(=O)N(CCCN)[C@@H](c2nc3cc(Cl)ccc3c(=O)n2Cc2ccccc2)C(C)C)cc1 : 0.00228
3) O=c1cc(-c2ccccc2)c2c(O)cc(O)cc2o1 : 0.00283

Just so you know, measured CSP for O=C1Nc2ccc(Br)cc2C1=Cc1cc(O)c(O)c(Br)c1 came out at 0.00158

###

The entries below are paired with their reported CSP.
target: GABARAPL2 (Homo sapiens, UniProt P60520); conditions: residue S37; GABARAPL2:ligand molar ratio 1:2
Give the quantity in ppm, number only.

Observe how each entry below is paired with its result.
1. O=C1Nc2ccc(Br)cc2C1=Cc1cc(O)c(O)c(Br)c1 : 0.048
2. Cc1ccc(C(=O)N(CCCN)[C@@H](c2nc3cc(Cl)ccc3c(=O)n2Cc2ccccc2)C(C)C)cc1 : 0.005

CSP for GABARAPL2 (Homo sapiens, UniProt P60520) with input O=C1Nc2ccc(I)cc2C1=Cc1cc(Br)c(O)c(Br)c1 equals 0.030

GABARAPL2 (Homo sapiens, UniProt P60520) data for O=c1cc(-c2ccccc2)c2c(O)cc(O)cc2o1 ; its CSP: 0.0065

###

target: GABARAPL2 (Homo sapiens, UniProt P60520); conditions: residue I55; GABARAPL2:ligand molar ratio 1:2
Quantity name: CSP (ppm)
Report as a plain number; the unit ppm is understood.

1) O=C1Nc2ccc(Br)cc2C1=Cc1cc(O)c(O)c(Br)c1 [compound 1] : 0.003
2) O=c1cc(-c2ccccc2)c2c(O)cc(O)cc2o1 [compound 2] : 0.00171
3) O=C1Nc2ccc(I)cc2C1=Cc1cc(Br)c(O)c(Br)c1 [compound 4] : 0.026

Let us move to another entry and its CSP.
Input Cc1ccc(C(=O)N(CCCN)[C@@H](c2nc3cc(Cl)ccc3c(=O)n2Cc2ccccc2)C(C)C)cc1 [compound 3] . Output CSP: 0.000762

###

Recorded CSP, one value per entry.
biological target: GABARAPL2 (Homo sapiens); conditions: residue L50; GABARAPL2:ligand molar ratio 1:2
Write the number in ppm without appending the unit.

// below: answered compounds
1. O=C1Nc2ccc(Br)cc2C1=Cc1cc(O)c(O)c(Br)c1 [compound 1] : 0.025
2. O=c1cc(-c2ccccc2)c2c(O)cc(O)cc2o1 [compound 2] : 0.031
3. O=C1Nc2ccc(I)cc2C1=Cc1cc(Br)c(O)c(Br)c1 [compound 4] : 0.096

# context switch: different compound, same CSP
Form: item Cc1ccc(C(=O)N(CCCN)[C@@H](c2nc3cc(Cl)ccc3c(=O)n2Cc2ccccc2)C(C)C)cc1 [compound 3] ; test system GABARAPL2 (Homo sapiens); CSP: 0.00216

###

target: GABARAP (Homo sapiens, UniProt O95166)
Sequence (O95166 1-116): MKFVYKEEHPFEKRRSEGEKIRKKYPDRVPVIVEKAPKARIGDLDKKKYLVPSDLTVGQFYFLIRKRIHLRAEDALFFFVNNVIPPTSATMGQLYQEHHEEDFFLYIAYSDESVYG
Quantity name: pKi
Lab note — pKi values are minus log10 of concentrations in M.

Known value: GABARAP (Homo sapiens, UniProt O95166) pKi of the compound CO[C@@H]1[C@@H](OC(N)=O)[C@@H](O)[C@H](Oc2ccc3c(O)c(NC(=O)c4ccc(O)c(CC=C(C)C)c4)c(=O)oc3c2C)OC1(C)C equals 4.24

###

Listed here are molecules together with their documented CSP.
target: GABARAPL2 (Homo sapiens); conditions: residue V29; GABARAPL2:ligand molar ratio 1:2
The reply should be a number in ppm, with the unit left off.

1. O=C1Nc2ccc(Br)cc2C1=Cc1cc(O)c(O)c(Br)c1 : 0.043

// recorded CSP for O=c1cc(-c2ccccc2)c2c(O)cc(O)cc2o1 : 0.0057

Reported CSP ( O=C1Nc2ccc(I)cc2C1=Cc1cc(Br)c(O)c(Br)c1 ) = 0.102

Cc1ccc(C(=O)N(CCCN)[C@@H](c2nc3cc(Cl)ccc3c(=O)n2Cc2ccccc2)C(C)C)cc1 has a reported CSP of 0.00214

These measurements were taken from paper PMC11589570.
